target: Neu5Ac(a2-3)Gal(b1-4)[Fuc(a1-3)]GlcNAc6S; experiment: glycan array binding signal (z-score within array); higher = stronger binding; settings: glycan notation: IUPAC condensed, linker removed
Only a selection was taken, and the strongest signals are over-represented in it overall.
Assay Readout: glycan array binding signal (z-score)

In the examples that follow, each entry is paired with its recorded glycan array binding signal (z-score).
[
  {
    "Binder": "MpAFP NterminalRI GFP (Marinomonas primoryensis) (protein) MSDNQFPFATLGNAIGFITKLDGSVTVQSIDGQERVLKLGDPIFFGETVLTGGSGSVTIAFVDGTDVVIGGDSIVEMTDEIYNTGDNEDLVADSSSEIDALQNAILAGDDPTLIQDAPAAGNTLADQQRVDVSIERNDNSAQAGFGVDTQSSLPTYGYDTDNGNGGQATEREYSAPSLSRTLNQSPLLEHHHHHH",
    "Assay Readout": "glycan array binding signal (z-score)",
    "Measured Value": -0.574
  },
  {
    "Binder": "CLEC9a (Mus musculus), Q8BRU4 (protein) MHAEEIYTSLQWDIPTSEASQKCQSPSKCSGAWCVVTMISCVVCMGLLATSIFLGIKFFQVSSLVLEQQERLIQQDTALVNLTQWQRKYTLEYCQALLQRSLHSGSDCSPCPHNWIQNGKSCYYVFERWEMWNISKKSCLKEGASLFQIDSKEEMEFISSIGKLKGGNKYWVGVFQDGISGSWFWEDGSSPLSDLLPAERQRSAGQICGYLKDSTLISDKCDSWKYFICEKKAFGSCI",
    "Assay Readout": "glycan array binding signal (z-score)",
    "Measured Value": -0.627
  }
]

Proceed to the following item.
Ask | What value of glycan array binding signal (z-score) has been reported for the following binder? STA (Solanum tuberosum) (protein) NASAPLPYPQCGLKKGGGKCIKTGECCSIWGWCGTTSDYCAPGYCQKQCPGPYPQGRCGWQANGKSCPTGTGQCCSNAGWCGTTSDYCAPNNCQSQCKLPPPPPSPPPPPPSPPPPSPPPPPPSPPPPSPSPPPPPPSPPPPSPPPPSPPPPSPPPPPSPSPPPPPPSPPPPPPPLPYPQCGMKKGGGKCIKTGECCSIWGWCGTTSKYCSPGYCQMQCPDPYPEGRCGWQANGKSCPTGTGQCCSNAGWCGTTSAYCAPVNCQAQCNTTTLTSPIKNRMRGIESFMLNVV
Reply | -0.49
